- Target Entity: PI3-kinase p110-alpha/p85-alpha (Homo sapiens) (UniProt P27986+P42336)
- Assay Details: Inhibition of full length recombinant human N-terminal His6-tagged PI3Kalpha (1 to 1068 residues)/full length human N-terminal myc-tagged P85alpha (1 to 724 residues) expressed in Sf9 insect cells assessed as residual activity at 100 uM using PI : PS as substrate in presence of [gamma-33P]-ATP by scintillation counting method relative to control
Let's look at some compounds and their measured Activity.

[
  {
    "Smiles": "CC(=O)Nc1nc(C)c(-c2csc(Nc3ccccc3)n2)s1",
    "Activity": "81%"
  },
  {
    "Smiles": "CC(=O)Nc1nc(C)c(-c2csc(Nc3cccc(C(C)=O)c3)n2)s1",
    "Activity": "37%"
  },
  {
    "Smiles": "CC(=O)c1cccc(Nc2nc(-c3sc(NC(=O)c4ccccc4)nc3C)cs2)c1",
    "Activity": "54%"
  },
  {
    "Smiles": "CC(=O)c1cccc(Nc2nc(-c3sc(NC(=O)C(C)(C)C)nc3C)cs2)c1",
    "Activity": "93%"
  },
  {
    "Smiles": "COc1cccc(Nc2nc(-c3sc(NC(C)=O)nc3C)cs2)c1",
    "Activity": "51%"
  },
  {
    "Smiles": "CCC(=O)Nc1nc(C)c(-c2csc(Nc3cccc(C(C)=O)c3)n2)s1",
    "Activity": "40%"
  },
  {
    "Smiles": "CC(=O)c1cccc(Nc2nc(-c3sc(NC(=O)C(F)(F)F)nc3C)cs2)c1",
    "Activity": "85%"
  },
  {
    "Smiles": "CC(=O)c1cccc(Nc2nc(-c3sc(NC(=O)OC(C)(C)C)nc3C)cs2)c1",
    "Activity": "64%"
  },
  {
    "Smiles": "CC(=O)Nc1nc(C)c(-c2csc(Nc3ccc(C(C)=O)cc3)n2)s1",
    "Activity": "100%"
  }
]

---

- Test system: Enterovirus A71
- Assay Details: Antiviral activity against Enterovirus 71 infected in RD cells assessed as reduction in virus-induced cytopathic effect incubated for 2 to 3 days
- Type: functional, cell-based
- Test Parameters: Enterovirus A, RD; read-out: EC50
Quantity Kind: EC50 (nM)

[
  {
    "Smiles": "CC(=O)Nc1nc(C)c(-c2c[nH]c(Nc3cccc(C(C)=O)c3)n2)s1",
    "Bound Operator": ">",
    "Assay Value": 90200
  },
  {
    "Smiles": "CCC(=O)Nc1nc(C)c(-c2csc(Nc3cccc(C(C)=O)c3)n2)s1",
    "Bound Operator": "=",
    "Assay Value": 380
  },
  {
    "Smiles": "CC(=O)c1cccc(Nc2nc(-c3sc(NC(=O)C(C)(C)C)nc3C)cs2)c1",
    "Bound Operator": "=",
    "Assay Value": 270
  },
  {
    "Smiles": "CCC(=O)Nc1nc(C)c(-c2csc(Nc3ccc(N(C)C)cc3)n2)s1",
    "Bound Operator": "=",
    "Assay Value": 8580
  },
  {
    "Smiles": "CC(=O)c1cccc(Nc2nc(-c3sc(NC(=O)OC(C)(C)C)nc3C)cs2)c1",
    "Bound Operator": "=",
    "Assay Value": 1420
  }
]
